Give viability, T/C for every item shown.
Test system: SYO-1 complex spheroid growth, percent test/control
TEST: Anticancer human tumor SYO-1 cell line growth inhibition [Asc];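 further: compound exposure lasted 7 days after spheroids grew 3 days; 100% = DMSO vehicle control viability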
CONDITION_PARAMETERS: second compound 0.316 µM; first compound 0.949 µM; active compounds read low
State the answer as a number, implicitly in %.

// viability, T/C lookup, molecule = CCN1C(C(=O)NC23CCC(C(=O)O)(CC2)CC3)C(c2cccc(Cl)c2F)C2(C(=O)Nc3cc(Cl)ccc32)C12CCCCC2 (centres undefined) + CNC(C)C(=O)NC1CN(S(=O)(=O)c2cccc(S(=O)(=O)N3CCC4CCC(C(=O)NC(c5ccccc5)c5ccccc5)N4C(=O)C(NC(=O)C(C)NC)C3)c2)CCC2CCC(C(=O)NC(c3ccccc3)c3ccccc3)N2C1=O , result: 0.85

Memo: CCN1C(C(=O)NC23CCC(C(=O)O)(CC2)CC3)C(c2cccc(Cl)c2F)C2(C(=O)Nc3cc(Cl)ccc32)C12CCCCC2 (centres undefined) + Cc1c(S(C)(=O)=O)c(-c2cc(F)cc(N3CCN(c4ccc(NS(=O)(=O)c5ccc(NC(CCN6CCC(C(=O)OCCCP(=O)(O)O)CC6)CSc6ccccc6)c(S(=O)(=O)C(F)(F)F)c5)cc4)CC3)c2)c(-c2ccc(Cl)cc2)n1C(C)C , reported viability, T/C: 0.85

The recorded viability, T/C for Cc1nc(N2CCC3(CC2)COC(C)C3N)c(CO)nc1Sc1ccnc(N)c1Cl (centres undefined) + CNC(C)C(=O)NC1CN(S(=O)(=O)c2cccc(S(=O)(=O)N3CCC4CCC(C(=O)NC(c5ccccc5)c5ccccc5)N4C(=O)C(NC(=O)C(C)NC)C3)c2)CCC2CCC(C(=O)NC(c3ccccc3)c3ccccc3)N2C1=O is 119

For reference, reported viability, T/C for Cc1nc(N2CCC3(CC2)COC(C)C3N)c(CO)nc1Sc1ccnc(N)c1Cl (centres undefined) + Cc1c(S(C)(=O)=O)c(-c2cc(F)cc(N3CCN(c4ccc(NS(=O)(=O)c5ccc(NC(CCN6CCC(C(=O)OCCCP(=O)(O)O)CC6)CSc6ccccc6)c(S(=O)(=O)C(F)(F)F)c5)cc4)CC3)c2)c(-c2ccc(Cl)cc2)n1C(C)C stands at 103
